Attribution: patent US4840966A

assayed-system: ACE (Angiotensin I converting enzyme) (Sus scrofa, UniProt F1RRW5)
Construct: the ACE obtained from renal cortex of pig; from tissue; host or cells: renal cortex of pig
Sequence (F1RRW5 34-1309): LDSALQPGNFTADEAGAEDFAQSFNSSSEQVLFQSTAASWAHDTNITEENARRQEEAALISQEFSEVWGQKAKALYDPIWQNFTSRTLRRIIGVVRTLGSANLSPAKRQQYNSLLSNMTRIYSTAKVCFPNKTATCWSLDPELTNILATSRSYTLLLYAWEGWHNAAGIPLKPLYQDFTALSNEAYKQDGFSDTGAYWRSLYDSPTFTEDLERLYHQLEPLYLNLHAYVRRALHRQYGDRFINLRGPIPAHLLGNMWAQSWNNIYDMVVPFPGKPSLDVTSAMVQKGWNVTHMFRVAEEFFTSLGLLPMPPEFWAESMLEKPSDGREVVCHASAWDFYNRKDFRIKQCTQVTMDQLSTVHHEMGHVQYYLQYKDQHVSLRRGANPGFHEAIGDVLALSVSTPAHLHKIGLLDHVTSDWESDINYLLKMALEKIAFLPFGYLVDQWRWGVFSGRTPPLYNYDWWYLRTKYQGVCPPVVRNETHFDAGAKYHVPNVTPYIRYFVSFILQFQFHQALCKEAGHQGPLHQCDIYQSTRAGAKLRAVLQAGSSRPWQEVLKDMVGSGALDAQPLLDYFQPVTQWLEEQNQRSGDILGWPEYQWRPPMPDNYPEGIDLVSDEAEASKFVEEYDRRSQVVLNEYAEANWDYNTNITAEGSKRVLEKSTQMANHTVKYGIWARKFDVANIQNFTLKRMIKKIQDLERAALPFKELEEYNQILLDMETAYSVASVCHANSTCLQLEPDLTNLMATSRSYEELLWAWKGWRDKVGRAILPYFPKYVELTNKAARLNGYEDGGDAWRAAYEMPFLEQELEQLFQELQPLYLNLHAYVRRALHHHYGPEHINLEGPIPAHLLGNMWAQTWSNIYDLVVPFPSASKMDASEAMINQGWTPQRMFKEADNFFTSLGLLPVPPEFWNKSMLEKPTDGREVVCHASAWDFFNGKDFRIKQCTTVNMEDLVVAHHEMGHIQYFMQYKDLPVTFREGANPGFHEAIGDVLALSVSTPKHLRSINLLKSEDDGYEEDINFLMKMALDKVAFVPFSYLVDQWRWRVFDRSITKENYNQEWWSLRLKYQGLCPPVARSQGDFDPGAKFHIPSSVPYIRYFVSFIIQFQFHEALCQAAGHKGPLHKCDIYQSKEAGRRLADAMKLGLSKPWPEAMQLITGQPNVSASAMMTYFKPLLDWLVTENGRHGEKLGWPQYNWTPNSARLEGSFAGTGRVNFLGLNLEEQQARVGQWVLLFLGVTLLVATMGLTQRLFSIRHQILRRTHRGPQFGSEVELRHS
assay-protocol: Inhibition of ACE (Hip-His-Leu substrate, O-phthal aldehyde fluorescence)
Assay type: biochemical, pig
setup-conditions: ACE from renal cortex of pig; Hip-His-Leu substrate; 37° C.
pIC50: −log10 of the molar value.
value-kind: pIC50

molecule: O=C(O[C@@H]1Cc2c(O)cc(O)cc2O[C@@H]1c1cc(O)c(=O)c2c(O)c(O)cc([C@H]3Oc4cc(O)cc(O)c4C[C@H]3O)c2c1)c1cc(O)c(O)c(O)c1 [Theaflavin monogallate A, theaflavin monogallate A]
value-kind: pIC50
value-measured: 3.94
//
molecule: O=C(O[C@@H]1Cc2c(O)cc(O)cc2O[C@@H]1c1cc(O)c(O)c2c(=O)c(O)cc([C@H]3Oc4cc(O)cc(O)c4C[C@H]3O)cc12)c1cc(O)c(O)c(O)c1 [Theaflavin monogallate B, theaflavin monogallate B]
value-kind: pIC50
value-measured: 3.96
//
molecule: O=c1c(O)cc([C@H]2Oc3cc(O)cc(O)c3C[C@H]2O)cc2c([C@H]3Oc4cc(O)cc(O)c4C[C@H]3O)cc(O)c(O)c12 [Free theaflavin, free theaflavin]
value-kind: pIC50
value-measured: 3.40
